Assay: Critical micelle concentration (methyl orange assay)
Assay type: physicochemical
Details: pH 7 PBS, A484
Square brackets hold non-standard residues; d marks the D form. Ends that are not written are not given here. * marks the point of attachment. Myristoyl = CCCCCCCCCCCCCC(=O)*; Lauroyl = CCCCCCCCCCCC(=O)*; linker = not defined here; Aun = NCCCCCCCCCCC(=O)O
Listing: CMC of selected substances
Give just the numeric value; µM need not be written.

// solved cases for CMC follow
substance	observed-result
SSHRTNHKKNNPKKKNKTRGSSGK [Compound 130, AUD-AUD-AUD-AUD-AUD-AUD-SEQ ID NO: 122]	0.041
[MYR]2-K-linker-SEQ ID NO: 122 (SSHRTNHKKNNPKKKNKTRGSSGK; also: lysine bearing two myristoyl groups, place not given here, linker, place and nature not given here) [Compound 128]	0.123
SSHRTNHKKNNPKKKNKTRGSSGK [Compound 131]	0.37

Reported CMC of AUD-AUD-AUD-AUD-SEQ ID NO:122 ([Aun][Aun][Aun][Aun]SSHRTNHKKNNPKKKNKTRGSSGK) [Compound 122] : 0.123

Reported CMC of AUD-AUD-K-AUD-AUD-AUD-AUD-SEQ ID NO: 122 ([Aun][Aun]K[Aun][Aun][Aun][Aun]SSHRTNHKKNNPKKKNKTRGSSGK) [Compound 123] : 0.04

Reported CMC of MYR-linker-SEQ ID NO: 122 ({Myristoyl-linker}-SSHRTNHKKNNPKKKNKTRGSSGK; reading uncertain) [Compound 127] : 0.123

Reported CMC of Ac-Y-AUD-AUD-AUD-AUD-AUD-AUD-SEQ ID NO: 122 (Ac-Y[Aun][Aun][Aun][Aun][Aun][Aun]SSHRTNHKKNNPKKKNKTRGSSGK) [Compound 132] : 0.123

Reported CMC of MYR-SEQ ID NO: 122 (Myristoyl-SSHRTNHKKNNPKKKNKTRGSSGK) [Compound 125] : 0.123

Reported CMC of LAU-SEQ ID NO: 122 (Lauroyl-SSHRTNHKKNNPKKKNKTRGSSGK) [Compound 126] : 0.37

Reported CMC of PALM-PALM-PALM-linker-SEQ ID NO: 122 (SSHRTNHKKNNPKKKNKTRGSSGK; also: three palmitoyl groups, place not given here, linker, place and nature not given here) [Compound 129] : 0.123

meta.source: patent US20090246248A1
